# Assay target: T1, human CLDN18.2 (human)
# T1 construct: the HEK293 line was made with a GenScript plasmid; also called hCLDN18.2
# Procedure summary: FACS on SNU601 cells
Consider the following binders; for each one, report its Emax (MFI).
Numbers only, in MFI.

# example entries with known answers
# Binder, Unit info, Emax (MFI)
rows = [
    ("PR004950 (antibody, V domains shown, anti-CLDN18.2 HCAb: VH fused to human IgG1 Fc, no light chain; also called R1029P021F07) VH: EVQLVESGGGLVQPGGSLRLSCAASGFTFSAYWMHWVRQVPGKGLVWVSRINSDGSRTIYADSVKGRFTISRDNAKNTLYLQMNSLRAEDTAVYYCARGEDHDILTGYPIRGQGTMVTVSS", "MFI", 13600),
    ("PR004533 (antibody, V domains shown, anti-CLDN18.2 HCAb: VH fused to human IgG1 Fc, no light chain; also called R1029P021E10) VH: EVQLVESGGGLVQPGGSLRLSCAASGFTFSSYWMHWVRQVPGKGLVWVSRINSDGSRTIYADSVKGRFTISRDNAKNTLYLQMNSLRAEDTAVYYCARGEDHDILTGYPIRGQGTTVTVSS", "MFI", 11300),
]

We next turn to a different binder, shown below.
### Prompt Look up Emax (MFI): PR004227 (antibody, V domains shown, anti-CLDN18.2 HCAb: VH fused to human IgG1 Fc, no light chain; also called R1029P(CG20)001B02) VH: EVQLVESGGGLVQPGGSLRLSCAASGFTFSSYWMHWVRQAPGKGLEWVSYINNDGSSTRYADSVKGRFTISRDNAKNTLYLQMNSLRAEDTAVYYCTEAPPYGNYERDYWGQGTLVTVSS
### Response 14800

FYI, the data here is from patent US20250340631A1.
